This collection of values is drawn from paper PMC11207571.

# system.tested: UniProtKB Q8HZQ6
# Sequence (Q8HZQ6 1-1283): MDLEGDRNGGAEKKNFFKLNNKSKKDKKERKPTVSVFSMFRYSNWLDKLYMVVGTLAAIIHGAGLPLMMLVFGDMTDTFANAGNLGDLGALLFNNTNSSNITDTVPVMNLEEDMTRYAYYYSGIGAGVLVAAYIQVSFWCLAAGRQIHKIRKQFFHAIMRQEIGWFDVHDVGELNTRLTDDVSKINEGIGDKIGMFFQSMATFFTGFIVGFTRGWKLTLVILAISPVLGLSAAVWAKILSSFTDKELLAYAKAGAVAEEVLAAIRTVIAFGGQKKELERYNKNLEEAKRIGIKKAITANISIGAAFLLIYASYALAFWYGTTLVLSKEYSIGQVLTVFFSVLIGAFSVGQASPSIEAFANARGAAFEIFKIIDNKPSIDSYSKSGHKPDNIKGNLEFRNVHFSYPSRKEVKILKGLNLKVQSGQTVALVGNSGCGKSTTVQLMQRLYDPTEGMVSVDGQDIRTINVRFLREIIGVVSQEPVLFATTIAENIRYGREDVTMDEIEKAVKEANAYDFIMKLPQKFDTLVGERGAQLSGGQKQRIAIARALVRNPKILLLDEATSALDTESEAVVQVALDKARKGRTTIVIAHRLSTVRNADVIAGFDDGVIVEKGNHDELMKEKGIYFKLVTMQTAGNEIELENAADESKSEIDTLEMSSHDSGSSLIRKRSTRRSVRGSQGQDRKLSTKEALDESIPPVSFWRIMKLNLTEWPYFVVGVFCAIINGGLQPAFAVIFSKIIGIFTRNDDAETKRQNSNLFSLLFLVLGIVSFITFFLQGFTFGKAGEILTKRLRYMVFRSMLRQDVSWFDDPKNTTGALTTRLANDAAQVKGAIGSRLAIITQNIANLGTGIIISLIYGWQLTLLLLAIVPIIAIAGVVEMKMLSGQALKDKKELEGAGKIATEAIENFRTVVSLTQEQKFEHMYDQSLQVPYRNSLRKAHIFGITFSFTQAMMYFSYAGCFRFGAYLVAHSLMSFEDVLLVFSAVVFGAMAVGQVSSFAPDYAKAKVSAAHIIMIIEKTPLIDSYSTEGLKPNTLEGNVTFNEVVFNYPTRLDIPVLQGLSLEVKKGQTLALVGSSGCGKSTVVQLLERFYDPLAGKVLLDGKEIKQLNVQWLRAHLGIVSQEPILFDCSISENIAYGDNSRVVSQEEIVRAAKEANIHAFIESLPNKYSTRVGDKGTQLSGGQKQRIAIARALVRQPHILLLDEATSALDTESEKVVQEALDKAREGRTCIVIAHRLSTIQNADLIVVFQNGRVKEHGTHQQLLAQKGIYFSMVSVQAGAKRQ
# test.details: cell-based
The label is 1 (yes) for IC50 below 7 µM and 0 (no) for IC50 equal to or exceeding 7 µM.

{"compound": "COC(=O)C1=C(C)NC(C)=C(C(=O)OC(C)C)C1c1cccc2nonc12 (stereo not drawn)", "system.tested": "UniProtKB Q8HZQ6", "group.label": "0 (no)"}
{"compound": "COc1cc2c(cc1OC)CN(CCc1ccc(NC(=O)c3cccc4c(=O)c5cccc(OC)c5[nH]c34)cc1)CC2", "system.tested": "UniProtKB Q8HZQ6", "group.label": "1 (yes)"}
{"compound": "Cc1ccccc1C(=O)Nc1ccc(C(=O)N2CCCC(O)c3cc(Cl)ccc32)c(C)c1 (stereo not drawn)", "system.tested": "UniProtKB Q8HZQ6", "group.label": "1 (yes)"}
{"compound": "CCOC(=O)C1=C(C)NC(C)=C(C(=O)OC)C1c1cccc([N+](=O)[O-])c1 (stereo not drawn)", "system.tested": "UniProtKB Q8HZQ6", "group.label": "1 (yes)"}
{"compound": "CCOC(=O)C1=C(C)NC(C)=C(C(=O)OC)C1c1cccc(Cl)c1Cl (stereo not drawn)", "system.tested": "UniProtKB Q8HZQ6", "group.label": "0 (no)"}
{"compound": "CN(C)C(=O)C(CCN1CCC(O)(c2ccc(Cl)cc2)CC1)(c1ccccc1)c1ccccc1 [Loperamide]", "system.tested": "UniProtKB Q8HZQ6", "group.label": "1 (yes)"}

* * *

# system.tested: rat Mdr1a (Rattus norvegicus)
# test.details: Bidirectional transport assay, efflux ratio in Abcb1KO-MDCKII rMDR1 cells
# measurement.setup: rat, pH 7.4
# Procedure: Eluent A consisted of 0.1% formic acid in water, eluent B consisted of 0.1% formic acid in acetonitrile. Then, 10 µL samples were injected into the HPLC-MS/MS system. Mass spectrometric detection was performed in SRM mode, and ion transitions for each analyte were optimized during method development. Samples were analyzed in pools, with each pool containing three to four analytes.
Reported values of efflux ratio at 120 min, 1 µM for individual entries
readout: efflux ratio at 120 min, 1 µM

{"compound": "COc1cc2ncnc(Nc3ccc(F)c(Cl)c3)c2cc1OCCCN1CCOCC1 [Gefitinib]", "system.tested": "rat Mdr1a (Rattus norvegicus)", "readout": "efflux ratio at 120 min, 1 µM", "result.value": 9.86}
{"compound": "CC(C)C[C@H]1C(=O)N2CCC[C@H]2[C@]2(O)O[C@](NC(=O)[C@@H]3C=C4c5cccc6[nH]c(Br)c(c56)C[C@H]4N(C)C3)(C(C)C)C(=O)N12 [Bromocriptine]", "system.tested": "rat Mdr1a (Rattus norvegicus)", "readout": "efflux ratio at 120 min, 1 µM", "result.value": 1.75}
{"compound": "NC(N)=Nc1nc(CSCCC(N)=NS(N)(=O)=O)cs1 [Famotidine]", "system.tested": "rat Mdr1a (Rattus norvegicus)", "readout": "efflux ratio at 120 min, 1 µM", "result.value": 1.08}
{"compound": "C=CCN1CC[C@]23c4c5ccc(O)c4O[C@H]2C(=O)CC[C@@]3(O)[C@H]1C5 [Naloxone]", "system.tested": "rat Mdr1a (Rattus norvegicus)", "readout": "efflux ratio at 120 min, 1 µM", "result.value": 0.61}
{"compound": "Cc1cc(=O)n(-c2ccccc2)n1C [Antipyrine]", "system.tested": "rat Mdr1a (Rattus norvegicus)", "readout": "efflux ratio at 120 min, 1 µM", "result.value": 0.65}
{"compound": "CC[C@]1(O)C[C@@H]2CN(CCc3c([nH]c4ccccc34)[C@@](C(=O)OC)(c3cc4c(cc3OC)N(C)[C@H]3[C@@](O)(C(=O)OC)[C@H](OC(C)=O)[C@]5(CC)C=CCN6CC[C@]43[C@@H]65)C2)C1 [Vinblastine]", "system.tested": "rat Mdr1a (Rattus norvegicus)", "readout": "efflux ratio at 120 min, 1 µM", "result.value": 61.2}
{"compound": "CN/C(=N/CCSCc1nc[nH]c1C)NC#N [Cimetidine]", "system.tested": "rat Mdr1a (Rattus norvegicus)", "readout": "efflux ratio at 120 min, 1 µM", "result.value": 9.86}
{"compound": "CN(C)CCOC(C)(c1ccccc1)c1ccccn1 (centres unmarked) [Doxylamine]", "system.tested": "rat Mdr1a (Rattus norvegicus)", "readout": "efflux ratio at 120 min, 1 µM", "result.value": 1.39}
{"compound": "CNC(=C[N+](=O)[O-])NCCSCc1ccc(CN(C)C)o1 [Ranitidine]", "system.tested": "rat Mdr1a (Rattus norvegicus)", "readout": "efflux ratio at 120 min, 1 µM", "result.value": 2.63}
{"compound": "CN(C)CCC=C1c2ccccc2COc2ccccc21 [Doxepin]", "system.tested": "rat Mdr1a (Rattus norvegicus)", "readout": "efflux ratio at 120 min, 1 µM", "result.value": 1.09}
{"compound": "CCCc1nc2c(C)cc(-c3nc4ccccc4n3C)cc2n1Cc1ccc(-c2ccccc2C(=O)O)cc1 [Telmisartan]", "system.tested": "rat Mdr1a (Rattus norvegicus)", "readout": "efflux ratio at 120 min, 1 µM", "result.value": 2.65}
{"compound": "OC[C@@H](O)[C@@H](O)[C@H](O)[C@H](O)CO [Mannitol]", "system.tested": "rat Mdr1a (Rattus norvegicus)", "readout": "efflux ratio at 120 min, 1 µM", "result.value": 0.89}
{"compound": "CC(C)N(CCC(C(N)=O)(c1ccccc1)c1ccccn1)C(C)C (centres unmarked) [Disopyramide]", "system.tested": "rat Mdr1a (Rattus norvegicus)", "readout": "efflux ratio at 120 min, 1 µM", "result.value": 21.1}
{"compound": "CC(C)NCC(O)COc1cccc2ccccc12 (centres unmarked) [Propranolol]", "system.tested": "rat Mdr1a (Rattus norvegicus)", "readout": "efflux ratio at 120 min, 1 µM", "result.value": 0.73}
{"compound": "CCN1CCCC1CNC(=O)c1cc(S(=O)(=O)CC)c(N)cc1OC (centres unmarked) [Amisulpride]", "system.tested": "rat Mdr1a (Rattus norvegicus)", "readout": "efflux ratio at 120 min, 1 µM", "result.value": 10.5}
{"compound": "CN(C)C(=O)C(CCN1CCC(O)(c2ccc(Cl)cc2)CC1)(c1ccccc1)c1ccccc1 [Loperamide]", "system.tested": "rat Mdr1a (Rattus norvegicus)", "readout": "efflux ratio at 120 min, 1 µM", "result.value": 10.5}
{"compound": "CCN(CC)C(=O)/C(C#N)=C/c1cc(O)c(O)c([N+](=O)[O-])c1 [Entacapone]", "system.tested": "rat Mdr1a (Rattus norvegicus)", "readout": "efflux ratio at 120 min, 1 µM", "result.value": 0.39}

* * *

# test.details: Bidirectional transport assay, efflux ratio in Abcb1KO-MDCKII-Mock control cells
# measurement.setup: dog, MDCK, pH 7.4
Reported values of efflux ratio at 120 min, 1 µM for individual entries

{"compound": "COc1cccc2c1C(=O)c1c(O)c3c(c(O)c1C2=O)C[C@@](O)(C(C)=O)C[C@@H]3O[C@H]1C[C@H](N)[C@H](O)[C@H](C)O1", "efflux ratio at 120 min, 1 µM": 1.04}
{"compound": "CCN(CC)CCNC(=O)c1cc(Cl)c(N)cc1OC [Metoclopramide]", "efflux ratio at 120 min, 1 µM": 0.85}
{"compound": "N=C(N)N/N=C/c1c(Cl)cccc1Cl", "efflux ratio at 120 min, 1 µM": 0.93}
{"compound": "CCN(CC)C(=O)/C(C#N)=C/c1cc(O)c(O)c([N+](=O)[O-])c1", "efflux ratio at 120 min, 1 µM": 0.32}
{"compound": "CC(C)N(CCC(C(N)=O)(c1ccccc1)c1ccccn1)C(C)C (stereo not drawn) [Disopyramide]", "efflux ratio at 120 min, 1 µM": 0.71}
{"compound": "COCCc1ccc(OCC(O)CNC(C)C)cc1 (stereo not drawn)", "efflux ratio at 120 min, 1 µM": 0.74}
{"compound": "CCN1CCCC1CNC(=O)c1cc(S(=O)(=O)CC)c(N)cc1OC (stereo not drawn) [Amisulpride]", "efflux ratio at 120 min, 1 µM": 1.19}
{"compound": "O=C(O)CCCN1CCC(O[C@@H](c2ccc(Cl)cc2)c2ccccn2)CC1", "efflux ratio at 120 min, 1 µM": 1.62}
{"compound": "CN[C@H]1CC[C@@H](c2ccc(Cl)c(Cl)c2)c2ccccc21", "efflux ratio at 120 min, 1 µM": 3.57}

* * *

# system.tested: rat Mdr1a (Rattus norvegicus, UniProt Q6PSM0)
# Sequence (Q6PSM0 1-1272): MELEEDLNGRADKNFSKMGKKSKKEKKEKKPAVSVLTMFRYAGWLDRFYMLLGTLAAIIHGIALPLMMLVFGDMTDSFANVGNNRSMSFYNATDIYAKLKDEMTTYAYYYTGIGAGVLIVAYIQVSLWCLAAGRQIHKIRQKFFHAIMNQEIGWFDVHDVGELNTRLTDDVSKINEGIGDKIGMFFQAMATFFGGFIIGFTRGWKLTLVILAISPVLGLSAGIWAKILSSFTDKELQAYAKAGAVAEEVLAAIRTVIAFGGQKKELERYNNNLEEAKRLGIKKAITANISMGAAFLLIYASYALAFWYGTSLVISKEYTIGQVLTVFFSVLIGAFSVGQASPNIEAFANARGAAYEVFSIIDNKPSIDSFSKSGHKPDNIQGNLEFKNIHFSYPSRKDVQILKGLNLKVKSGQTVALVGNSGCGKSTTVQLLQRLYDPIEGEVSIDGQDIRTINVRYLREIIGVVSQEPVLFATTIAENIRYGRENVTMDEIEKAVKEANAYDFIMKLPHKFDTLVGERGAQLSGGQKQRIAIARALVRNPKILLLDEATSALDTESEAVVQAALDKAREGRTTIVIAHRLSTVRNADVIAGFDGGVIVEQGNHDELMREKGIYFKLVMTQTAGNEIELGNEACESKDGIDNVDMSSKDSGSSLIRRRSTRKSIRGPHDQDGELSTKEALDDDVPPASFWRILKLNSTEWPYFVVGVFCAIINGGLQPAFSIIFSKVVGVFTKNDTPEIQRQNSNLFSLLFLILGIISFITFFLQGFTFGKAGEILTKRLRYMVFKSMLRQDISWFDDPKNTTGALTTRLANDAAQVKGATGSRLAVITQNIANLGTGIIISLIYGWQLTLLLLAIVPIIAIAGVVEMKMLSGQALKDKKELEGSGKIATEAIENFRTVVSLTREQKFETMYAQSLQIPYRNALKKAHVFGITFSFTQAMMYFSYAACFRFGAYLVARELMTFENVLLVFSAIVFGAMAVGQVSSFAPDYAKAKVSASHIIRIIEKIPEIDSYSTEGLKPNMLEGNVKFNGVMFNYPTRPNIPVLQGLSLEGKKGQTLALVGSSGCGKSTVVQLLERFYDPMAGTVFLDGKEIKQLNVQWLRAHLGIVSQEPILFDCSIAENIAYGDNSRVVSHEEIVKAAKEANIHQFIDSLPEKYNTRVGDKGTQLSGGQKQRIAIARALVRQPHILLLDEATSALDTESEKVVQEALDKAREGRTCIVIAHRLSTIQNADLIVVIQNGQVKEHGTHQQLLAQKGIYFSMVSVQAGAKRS
# test.details: Bidirectional transport assay, efflux ratio in Abcb1KO-MDCKII rMDR1 cells
# measurement.setup: rat, pH 7.4
Reported values of efflux ratio at 120 min, 1 µM for individual entries
readout: efflux ratio at 120 min, 1 µM

{"molecule": "CNS(=O)(=O)Cc1ccc2[nH]cc(CCN(C)C)c2c1 [Sumatriptan]", "readout": "efflux ratio at 120 min, 1 µM", "result.value": 2.02}
{"molecule": "COc1cccc2c1C(=O)c1c(O)c3c(c(O)c1C2=O)C[C@@](O)(C(C)=O)C[C@@H]3O[C@H]1C[C@H](N)[C@H](O)[C@H](C)O1 [Daunorubicin]", "readout": "efflux ratio at 120 min, 1 µM", "result.value": 16.9}
{"molecule": "O=C(CCCN1CCC(O)(c2ccc(Cl)cc2)CC1)c1ccc(F)cc1 [Haloperidol]", "readout": "efflux ratio at 120 min, 1 µM", "result.value": 0.85}
{"molecule": "Nc1c2c(nc3ccccc13)CCCC2 [Tacrine]", "readout": "efflux ratio at 120 min, 1 µM", "result.value": 0.88}
{"molecule": "CN(C)CCc1c[nH]c2ccc(C[C@H]3COC(=O)N3)cc12 [Zolmitriptan]", "readout": "efflux ratio at 120 min, 1 µM", "result.value": 2.69}
{"molecule": "COc1cc([C@@H]2c3cc4c(cc3[C@@H](O[C@@H]3O[C@@H]5CO[C@@H](C)O[C@H]5[C@H](O)[C@H]3O)[C@H]3COC(=O)[C@H]23)OCO4)cc(OC)c1O [Etoposide]", "readout": "efflux ratio at 120 min, 1 µM", "result.value": 5.98}
{"molecule": "CC(C)(C)c1ccc(C(O)CCCN2CCC(C(O)(c3ccccc3)c3ccccc3)CC2)cc1 (centres unmarked) [Terfenadine]", "readout": "efflux ratio at 120 min, 1 µM", "result.value": 1.29}
{"molecule": "O=c1n(CCCN2CCN(c3cccc(Cl)c3)CC2)nc2ccccn12 [Trazodone]", "readout": "efflux ratio at 120 min, 1 µM", "result.value": 1.4}
